solubility: recorded values
Experiment Description: Aqueous solubility of the compound in water at pH 6.5
Reported Metric: solubility (µg/mL)

> print(dat)
                                   compound  reported.metric  value.measured
1  CCN([C@@H]1CCN([C@H](C)c2ccccc2)C1)S(=O)(=O)NCCc1c(-c2cccs2)n[nH]c1-c1cnccn1       solubility              71
2  CCN([C@@H]1CCN(C(C)(C)c2ccccc2)C1)S(=O)(=O)NCCc1c(-c2cccs2)n[nH]c1-c1cnccn1       solubility              71
3  CCN([C@@H]1CCN([C@@H](C)c2ccccc2)C1)S(=O)(=O)NCCc1c(-c2cccs2)n[nH]c1-c1cnccn1       solubility              76
4  CN([C@@H]1CCN(Cc2ccccc2)C1)S(=O)(=O)NCCc1c(-c2cccs2)n[nH]c1-c1cnccn1       solubility              79
5  CCCCCc1ccc(S(=O)(=O)NCCc2c(-c3cccs3)n[nH]c2-c2cccs2)cc1       solubility             0.2
6  CCN([C@@H]1CCN(C(C)c2ccc(F)cc2)C1)S(=O)(=O)NCCc1c(-c2cccs2)n[nH]c1-c1cnccn1 (stereo partly specified)       solubility             129

Just for reference, ChEMBL document CHEMBL1795262 is where these values come from.
